Record: compiled IC50 on MBT domain-containing protein 1 (Homo sapiens, UniProt Q05BQ5) from multiple reports.
Sequence (Q05BQ5 whole entry, the tested form may be a part): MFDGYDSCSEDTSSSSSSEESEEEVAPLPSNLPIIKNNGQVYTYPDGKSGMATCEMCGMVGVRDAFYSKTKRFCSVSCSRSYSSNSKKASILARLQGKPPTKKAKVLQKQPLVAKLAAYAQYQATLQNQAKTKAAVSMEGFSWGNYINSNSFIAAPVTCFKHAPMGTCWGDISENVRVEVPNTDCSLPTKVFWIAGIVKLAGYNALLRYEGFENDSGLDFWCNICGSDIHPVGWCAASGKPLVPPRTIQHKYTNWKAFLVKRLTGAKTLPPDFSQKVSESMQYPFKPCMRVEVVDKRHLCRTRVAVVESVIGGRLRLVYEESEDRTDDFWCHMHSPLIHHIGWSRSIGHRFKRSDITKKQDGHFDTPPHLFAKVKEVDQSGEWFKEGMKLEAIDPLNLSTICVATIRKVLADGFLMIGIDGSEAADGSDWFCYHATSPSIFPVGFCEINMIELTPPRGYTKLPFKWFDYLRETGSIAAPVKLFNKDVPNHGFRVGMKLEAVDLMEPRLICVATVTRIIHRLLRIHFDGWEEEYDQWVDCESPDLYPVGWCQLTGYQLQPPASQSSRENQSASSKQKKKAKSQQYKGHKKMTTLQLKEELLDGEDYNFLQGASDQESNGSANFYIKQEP
MEASURED_METRIC: IC50

INSERT INTO results (compound, measured_metric, result) VALUES
  ('c1cc(N2CCC(N3CCCC3)CC2)ccc1CCN1CCOCC1', 'IC50', '> 300 µM'),
  ('O=C(c1ccc(C(=O)N2CCC(N3CCCC3)CC2)c(Br)c1)N1CCC(N2CCCC2)CC1', 'IC50', '7.8 µM'),
  ('O=C(c1ccc(C(=O)N2CCC(N3CCCC3)CC2)c(-c2ccccc2)c1)N1CCC(N2CCCC2)CC1', 'IC50', '> 10 µM'),
  ('c1cc(N2CCC(N3CCCC3)CC2)ccc1CCN1CCC2(C1)OCCO2', 'IC50', '> 300 µM'),
  ('O=C(c1ccc(S(=O)(=O)N2CCC(N3CCCC3)CC2)cc1)N1CCC(N2CCCC2)CC1', 'IC50', '5.4 µM'),
  ('O=C(c1ccc(C(=O)N2CCC(N3CCCC3)CC2)nc1)N1CCC(N2CCCC2)CC1', 'IC50', '> 10 µM'),
  ('O=C(c1ccccc1C(=O)N1CCC(N2CCCC2)CC1)N1CCC(N2CCCC2)CC1', 'IC50', '> 10 µM'),
  ('O=C(c1ccc(C(=O)N2CC3CCC(C2)C3N2CCCC2)cc1)N1CCC(N2CCCC2)CC1 (stereo unspecified)', 'IC50', '> 10 µM'),
  ('O=C(c1cccc(C(=O)N2CCC(N3CCCC3)CC2)c1)N1CCC(N2CCCC2)CC1', 'IC50', '> 10 µM'),
  ('O=C(c1ccc(C(=O)N2CC3(CCNC3)C2)cc1)N1CCC(N2CCCC2)CC1', 'IC50', '> 10 µM'),
  ('O=C(c1ccc(C(=O)N2CC(N3CCCC3)C2)cc1)N1CCC(N2CCCC2)CC1', 'IC50', '> 10 µM'),
  ('c1cc(N2CCC(N3CCCC3)CC2)ccc1CCN1CCCCCC1', 'IC50', '249 µM'),
  ('O=C(c1ccc(C(=O)N2CCC(N3CCCCC3)CC2)cc1)N1CCC(N2CCCCC2)CC1', 'IC50', '50 µM'),
  ('O=C(c1ccc(C(=O)N2CCC(N3CCCC3)CC2)cc1)N1CCC(N2CCCCC2)CC1', 'IC50', '10 µM'),
  ('Clc1cc(N2CCC(N3CCCC3)CC2)ccc1CCN1CCCC1', 'IC50', '176 µM'),
  ('C[N+]1(C2CCN(C(=O)c3ccc(C(=O)N4CCC(N5CCCC5)CC4)cc3)CC2)CCCC1', 'IC50', '> 10 µM'),
  ('O=C(c1ccc(C(=O)N2CCC(N3CCCC3)C2)cc1)N1CCC(N2CCCC2)CC1 (stereo unspecified)', 'IC50', '> 10 µM'),
  ('CN(C)CCC(=O)c1cc2c(cc1Br)OCCCO2', 'IC50', '> 100 µM'),
  ('O=C(c1ccc2cc(C(=O)N3CCC(N4CCCC4)CC3)ccc2c1)N1CCC(N2CCCC2)CC1', 'IC50', '> 10 µM'),
  ('CNCCCCOc1ccc(C)cc1OC', 'IC50', '> 100 µM'),
  ('O=C(c1ccc(C(=O)N2CCC(N3CCCC3)CC2)cc1)N1CCCC(N2CCCC2)CC1 (stereo unspecified)', 'IC50', '> 10 µM');
